- measurement-description: Solubility / concentration determination by UPLC of supernatant
- Format: physicochemical
- experimental-context: organic solvent or mixture, thermodynamic from solid; saturated supernatant, room temperature, propylene glycol
measurement-kind: solubility

-- ask Look up and report measured solubility for this entry: `O=C1CN(/N=C/c2ccc(-c3ccc([N+](=O)[O-])cc3)o2)C(O)=N1`
-- reply ~800 µg/mL
